src = paper PMC6664820

# Assayed system: human SGLT1 (hSGLT1) (human)
# Sequence (P13866 whole entry, looked up): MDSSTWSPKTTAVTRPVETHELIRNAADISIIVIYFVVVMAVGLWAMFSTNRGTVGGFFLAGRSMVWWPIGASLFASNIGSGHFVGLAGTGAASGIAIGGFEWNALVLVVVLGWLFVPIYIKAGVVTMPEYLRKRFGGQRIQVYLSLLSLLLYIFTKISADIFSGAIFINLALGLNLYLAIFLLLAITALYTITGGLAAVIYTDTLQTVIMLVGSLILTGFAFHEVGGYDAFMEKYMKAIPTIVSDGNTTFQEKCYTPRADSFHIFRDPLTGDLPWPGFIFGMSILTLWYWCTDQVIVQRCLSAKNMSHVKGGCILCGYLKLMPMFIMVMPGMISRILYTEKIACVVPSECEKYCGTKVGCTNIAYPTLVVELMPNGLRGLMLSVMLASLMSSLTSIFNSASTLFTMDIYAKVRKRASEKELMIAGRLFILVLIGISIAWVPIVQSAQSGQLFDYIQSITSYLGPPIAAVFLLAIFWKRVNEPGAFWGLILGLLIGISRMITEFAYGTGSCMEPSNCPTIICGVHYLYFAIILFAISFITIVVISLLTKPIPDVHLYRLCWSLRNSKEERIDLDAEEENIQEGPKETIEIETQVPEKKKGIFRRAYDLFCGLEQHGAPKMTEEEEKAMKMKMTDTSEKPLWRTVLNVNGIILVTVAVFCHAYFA
# Experimental protocol: primary screen, percent of control activity; higher = less effect of the substance
# Set-up: single well
# Condition label: 50 µM
Out of some 1,900 compounds screened, about 40 (2%) showed an effect of 50% or more. The entries come from a sample that favours strong results as a whole.
Assay metric: NORMALIZED SGLT1 ACTIVITY (%)
A number alone suffices; assume %.

Dear colleague, please send me the reported NORMALIZED SGLT1 ACTIVITY (%) for Cc1ccsc1/C=C/C1=NCCCN1C.O=C(O)CC(O)(CC(=O)O)C(=O)O when you can. 91

Dear colleague, please send me the reported NORMALIZED SGLT1 ACTIVITY (%) for COc1ccc2[nH]cc(CCN)c2c1.Cl when you can. 120

Dear colleague, please send me the reported NORMALIZED SGLT1 ACTIVITY (%) for Cn1nnnc1SCC1=C(C(=O)[O-])N2C(=O)C(NC(=O)C(O)c3ccccc3)C2SC1.[Na+] (centres unmarked) when you can. 150

Dear colleague, please send me the reported NORMALIZED SGLT1 ACTIVITY (%) for CN1CCCN=C1COC(=O)C(O)(c1ccccc1)C1CCCCC1.Cl (centres unmarked) when you can. 43

Dear colleague, please send me the reported NORMALIZED SGLT1 ACTIVITY (%) for CC(=O)Nc1ccccc1 when you can. 112

Dear colleague, please send me the reported NORMALIZED SGLT1 ACTIVITY (%) for CC1(C)S[C@@H]2[C@H](NC(=O)Cc3ccccc3)C(=O)N2[C@H]1C(=O)[O-].[K+] when you can. 115

Dear colleague, please send me the reported NORMALIZED SGLT1 ACTIVITY (%) for CCCCCCCCCCCCCCCCCC(=O)O.CC[C@H]1OC(=O)[C@H](C)[C@@H](O[C@H]2C[C@@](C)(OC)[C@@H](O)[C@H](C)O2)[C@H](C)[C@@H](O[C@@H]2O[C@H](C)C[C@H](N(C)C)[C@H]2O)[C@](C)(O)C[C@@H](C)C(=O)[C@H](C)[C@@H](O)[C@]1(C)O when you can. 106

Dear colleague, please send me the reported NORMALIZED SGLT1 ACTIVITY (%) for O=P(O)(O)O.c1ccc(CN(CC2=NCCN2)c2ccccc2)cc1 when you can. 87
